Reference source: PubChem BioAssay (NCI)

Reported growth values follow for various molecules
tested on: MOLT-4 leukemia; test: NCI-60 one-dose screen, 48 h (100 = growth as untreated, 0 = no growth, -100 = all killed); details: 10 µM unless noted
This is part of a sample that, as a whole, favours compounds with a hit. Of some 83,000 tested, about 20% had one in any assay. Active and inactive are the calls of the source. How the source made its calls: active means growth percent below 10; inactive means the rest.
Measured Attribute: growth

* N#Cc1c(-c2cccs2)cc(-c2cnccn2)nc1SCC(=O)N/N=C/c1cccs1 | 85.2% (inactive)
* CCN(CC)S(=O)(=O)c1ccc(-c2nc(C(Cl)Cl)nc3cc(C)nn23)cc1 | 36.1% (inactive)
* Cn1cc(-c2nc(N)nnc2-c2c[nH]c3ccc(Br)cc23)c2cc(F)ccc21 | 69.4% (inactive)
* O=C(CCCCCCN1CC(=O)N2[C@@H](c3ccccc3Br)c3[nH]c4ccccc4c3C[C@H]2C1=O)NO | 6.43% (active)
* CCc1cc2c(cc1Cl)nc1c(=O)[nH]c(=O)nc-1n2CCOCC(C)(C)C | 69.2% (inactive)
* CCN(CC)CCOc1ccc(C(=C(C)Cc2ccc(OC)cc2)c2ccc(OCCN(CC)CC)cc2)cc1 | 3.61% (active)

###

system: MCF7 breast; assay: NCI-60 one-dose screen, 48 h; conditions: 10 µM unless noted
This is part of a sample that, as a whole, favours compounds with a hit. Of some 83,000 tested, about 20% had one in any assay. Activity calls are given as the source filed them. How the source made its calls: active means growth percent below 10; inactive means the rest.
Outcome codes: yes (1) = active, no (0) = inactive

* O=C(/C=C/c1ccc(Cl)c(Cl)c1)Nc1ncc(Cc2ccc(Cl)c(Cl)c2)s1 | no (0)
* CN1CCN(Cc2ccc(NC(=O)c3cncc(C#Cc4cnc5ccc(N6CCOCC6)nn45)c3)cc2C(F)(F)F)CC1 | yes (1)
* OCC(Nc1ncnc2ccc(-c3cnc4cnccn34)cc12)c1ccccc1 (stereo not given) | no (0)
* CCN(CC)CCOc1ccc(C(=C(C)Cc2ccc(OC)cc2)c2ccc(OCCN(CC)CC)cc2)cc1 | yes (1)
* CCOC(=O)c1cnc2c(-c3ccc(Cl)c(Cl)c3)cnn2c1 | no (0)
* C#C[C@]1(O)CC[C@H]2[C@@H]3CC=C4c5sc(Nc6ccc(C)cn6)nc5CC[C@]4(C)[C@H]3CC[C@@]21C | yes (1)
* C#CCOc1ccc(/C=N/Nc2nc(-c3ccc(OC)cc3)cs2)cc1 | no (0)
* O=C1[C@@H]2Cc3c([nH]c4ccccc34)[C@H](c3ccc(Br)cc3)N2C(=O)CN1C1CCN(Cc2c(Cl)cccc2Cl)CC1 | no (0)
* COc1ccc(/C=N\NC(=O)c2cnn(CC(O)c3ccccc3)c2N)cc1OCc1ccc(Cl)cc1 (stereo not given) | no (0)
* CC1=C(C)C(=O)C(Nc2cccc(C)c2)=C(Br)C1=O | no (0)
* COc1ccc(CC(C)=C(c2ccc(OCCN3CCCC3)cc2)c2ccc(OCCN3CCCC3)cc2)cc1 | yes (1)
* Cn1cc(C2=C(c3coc4cc(Br)ccc34)C(=O)NC2=O)c2ccccc21 | no (0)
* O=C(/C=C/c1ccccc1Cl)Nc1ncc(Cc2cc(Cl)ccc2Cl)s1 | no (0)
* COc1ccc(OC)c(NC(=O)CCCCCCNC(=O)C(O)(O)C(F)(F)F)c1 | no (0)
* Cc1ccc(C(=O)CSc2nnc(-c3ccc(-c4ccc(Cl)cc4)nc3C)o2)cc1 | no (0)
* COc1cc(C(=O)c2cc(C(C)=O)c3c(C)cccn23)cc(OC)c1OC | no (0)
* Brc1ccc(-c2cc(-c3ccc4c(c3)OCCO4)n[nH]2)s1 | yes (1)
* C#CCN(C)CCCOc1ccc(NCc2ccc(C(=O)NO)cc2)cc1Cl | no (0)
* CCN(CC)c1ccc(/C=N/NC(=O)c2ccc(S(N)(=O)=O)cc2)c(O)c1 | yes (1)
* COc1ccc2[nH]cc(-c3nc(N)nnc3-c3cn(C)c4ccc(Br)cc34)c2c1 | no (0)
* O=c1c2cc(-c3ccc(F)cc3F)ccc2n(O)c(=O)n1-c1cccc(C(F)(F)F)c1 | yes (1)
* N#Cc1cccc(-c2cc(-c3ccc4c(c3)OCCO4)[nH]n2)c1 | no (0)
* Cc1ccccc1N1CCN(C2=C(Cl)C(=O)c3ncccc3C2=O)CC1 | yes (1)
* O=C(/C=C/c1ccc(F)cc1)Nc1cccc2cccnc12 | yes (1)
* O=C(N/N=C\c1ccc(F)cc1)c1ccc2nc(-c3ccc(Br)cc3)[nH]c2c1 | yes (1)
* O=c1c2cc(-c3ccc(F)cc3F)ccc2n(Nc2ccccc2)c(=O)n1-c1cccc(C(F)(F)F)c1 | yes (1)
* Cc1cc(Br)ccc1-n1cc(C#N)c(N)c1C(=O)c1ccc(Br)cc1 | no (0)
* COc1ccc2c(c1)c(-c1nn3cc(-c4ccncc4)nc3s1)cn2C | no (0)
* Cc1ccc(-c2cc3nc(C(Cl)Cl)nc(-c4ccc(S(=O)(=O)N(C)C)cc4)n3n2)cc1 | no (0)
* Cn1cc(-c2nnc(N)nc2-c2c[nH]c3ccc(F)cc23)c2cc(Br)ccc21 | no (0)
* CCc1cc(OC(=O)N2CCN(CCC(C)(COC(C)(C)C)COC(C)(C)C)CC2)ccc1Nc1cc(-c2ccc(-n3cccn3)cc2)[nH]n1 | no (0)
* COc1ccccc1N1CCN(C2=C(Cl)C(=O)c3ncccc3C2=O)CC1 | no (0)
* CC1=C(C)C(=O)C(Nc2cccc(C(F)(F)F)c2)=C(Br)C1=O | no (0)
* Cn1c(SCC(=O)c2ccc(Br)cc2)nc2ccccc2c1=O | no (0)
* O=C(O)CC1CCN(c2ccc3nnc(Cl)n3n2)CC1 | no (0)
